Please respond with reported No. SNP for every item in the list.
- System: MIA (pancreatic cancer) cell genome
- method.description: ctDNA coculture with MIA cells, whole genome sequencing: genomic insertion sites, transposons at insertion points and SNVs (pancreatic cancer)
- Type: cell-based, human
- run.parameters: TABLE 4; number of single nucleotide variants (SNVs or SNPs) identified; polynucleotides for pancreatic cancer cells
Provide a numeric answer; units are not to be included.

The value of No. SNP measured for the molecule 58 (nucleic acid, listed as Homo sapiens) TAGATGGAGGGGGAAAAACAGGGTGGGGAGCGGGAGGGAGGGAAGGTTTTGCAGAAAGACGGCGGTTAAAAAGTTTATGGGTAGATGGAGGGGGAAAAGAGGGTGGCAAGTGGGAGGAGGAAAGAGGGTGATAAGGGGGGGAAGTGGGGGTGAGCAGTAGGGAGAGAAGGTTTTGTGAAAAAAATGGGGAGAAAGGTTTTGGTTAGACGGGAGAAAAGAGGGTAACAAGTTGGGGAAGGAAAAAGAGGGTAGCTAGGAAGAAGACAAGGTTTTGCGAAAAGATAGCGGCCAGAAAAGAAAGACGGTGGAGAAAGGAAAGACGGTGGGTAAAAAGTGGGTAGATGGAGTGGGGAAAGAGGGT turned out to be 1

No. SNP reading for 55 (nucleic acid, listed as Homo sapiens) GCGGTGGCTCACGCTTGTAATCCCAGCACTTTGGGAGGCCGAGGTGGGCGGATCACGAGGTCAGGAGATCAAGACCACGGTGAAACCCCATCTCTACTAAAAATATAAAAAATTAGCCGGGCGTGGTGGTGGGCGCCTGTAATCCCAGCTACTCAGAGAGGCTGAGGCAGGAGAAGGGCGTGAACCCGGGAGGCGGAGCTTGTAGTGAGCTGAGATCGCGCCACTGCACTCCAGCACCCCAGCCTGGGTGACAGAGCGAGACTCCGTCTCAAAAAAATAATAATAATAATTAAATAAATAA : 1

No. SNP recorded for this molecule, 47 (nucleic acid, listed as Homo sapiens) AGGCCTGGCACAGTGGCTCATGCGTGTAATCCCAACACTGCGGGAAGCTGAGGCAGGAGGATCACTTGAGCCCAGGAGCTCATGGCTGTAGTGAGCTGTGATTGCACCACTGCACTGCACTCCAGCCTGGGCAACAGCAAGACCCTGTCTCCAAAAAAAAAAAACAAAACAAATTAAT , is 4

Reported No. SNP for 61 (nucleic acid, listed as Homo sapiens) TATTTTTAAGCAAAGACTTAGAGAGAGAGAGGAAGTTAGCTATGCACATTGTGGGTGCGGTGTGGTTAGGGTGGCCCTGAGATAGGGATATGCCTGGTGTGTTTACGGAACAGCTAAGAGGCCAGGGAACTAGAGGAAATTGAGTGGGAAGGAGAAGAGTAGGAGATTAGTTTTGAAAAGCAAATGGTTTGGGAATATGGATCATGTAAGAGCACATGAGATTTTATAAGGATTTCATTTTACTCAGGGTGAAATGAAGAAGCACTAAAA was 1

# No. SNP (molecule: 67 (nucleic acid, listed as Homo sapiens, listed as DNA, chemistry not fully specified) CCTTAATAGTTAATCTCCTATTAATAAGTAAGTGATTCTTTAATTAAACTTTCCTCATTCAAATGGCCATATGCTTTCTGTCTCTCGACTAGATGCTGAGTGATATACCCCCCA ) is 1

Form: molecule = 39 (nucleic acid, listed as Homo sapiens) GTATTTAGATTCCCAGACTTTGGAGCCAGATCGGCTGAGTTCAAACCCTGTCTGTGCAACTATCAGCTGTTCAGCTGTGTGACCTTGGGCAAGTTACTTAACCTCTCTGAACCCTGATTCCTCCTGCAAACGGTGGGAAAAATAATAGAACCAATCTCTCTGGGTTGCTGTAAGGATTAAATTAATTTACAGTGCATGTAACATGCTTACAGCAATGTCTGGCACACAGTAAGCACTAAGTATTTGTTGTTATTTGTCATC ; No. SNP = 1

This collection of values is drawn from patent US20250241939A1.
